assay_system: [35S]-TBPS binding, rat brain cortical membranes
assay_comment: Steroid inhibition of [35S]-TBPS binding
measurement_parameters: 3 nM [35S]-TBPS, in the presence of 5 mM GABA
pIC50: −log10 of the molar value.
reported_endpoint: pIC50

Entry COC[C@@]1(O)CC[C@H]2[C@H](CC[C@@H]3[C@@H]2CC[C@]2(C)[C@@H]([C@H](C)NC(=O)c4cc(C)nn4C)CC[C@@H]32)C1 [Example 119] ; pIC50 = 5.00 to 6.00

The reported value for COC[C@@]1(O)CC[C@H]2[C@H](CC[C@@H]3[C@@H]2CC[C@]2(C)[C@@H]([C@H](C)Cc4nc(C)ccc4Cl)CC[C@@H]32)C1 [Example 425] in terms of pIC50 is 5.00 to 6.00

GET /value?item= CCOC[C@@]1(O)CC[C@H]2[C@H](CC[C@@H]3[C@@H]2CC[C@]2(C)[C@@H]([C@@H](C)Nc4cccnc4F)CC[C@@H]32)C1 [Example 262] &field=pIC50 returns > 7.00

The molecule listed as CC[C@H](Nc1cccc(C#N)c1)[C@H]1CC[C@H]2[C@@H]3CC[C@@H]4C[C@@](O)(COC)CC[C@@H]4[C@H]3CC[C@]12C [Example 496] has a reported pIC50 of 6.00 to 7.00

Per the records, this molecule ( C[C@@H](NC(=O)c1cccnc1)[C@H]1CC[C@H]2[C@@H]3CC[C@@H]4C[C@](C)(O)CC[C@@H]4[C@H]3CC[C@]12C [Example 29] ) has pIC50 equal to 6.00 to 7.00

###

assay_system: [35S]-TBPS binding, rat brain cortical membranes
assay_comment: Steroid inhibition of [35S]-TBPS binding
measurement_parameters: 3 nM [35S]-TBPS, in the presence of 5 mM GABA
reported_endpoint: IC50

// returns IC50 for CCC[C@@]1(O)CC[C@H]2[C@H](CC[C@@H]3[C@@H]2CC[C@]2(C)[C@@H]([C@@H](C)Cc4ccc(C#N)nc4)CC[C@@H]32)C1 [Example 401] with [35S]-TBPS binding, rat brain cortical membranes; value = < 100 nM

The compound Cc1cnc(C[C@@H](C)[C@H]2CC[C@H]3[C@@H]4CC[C@@H]5C[C@](C)(O)CC[C@@H]5[C@H]4CC[C@]23C)nc1 [Example 438] on [35S]-TBPS binding, rat brain cortical membranes: IC50 was 100 to 1000 nM

Item CCC[C@@]1(O)CC[C@H]2[C@H](CC[C@@H]3[C@@H]2CC[C@]2(C)[C@@H]([C@H](C)Cc4ccc(C(F)(F)F)nc4)CC[C@@H]32)C1 [Example 411] ; assay system [35S]-TBPS binding, rat brain cortical membranes; IC50 reported as < 100 nM

###

assay_system: [35S]-TBPS binding, rat brain cortical membranes
assay_comment: Steroid inhibition of [35S]-TBPS binding
measurement_parameters: 3 nM [35S]-TBPS, in the presence of 5 mM GABA
For each entry below, report its IC50 value.

Memo: CCC[C@@]1(O)CC[C@H]2[C@@H](CC[C@@H]3[C@@H]2CC[C@]2(C)[C@@H]([C@H](C)Cn4cc(C#N)cn4)CC[C@@H]32)C1 , reported IC50: ≥ 10000 nM

CCOC[C@@]1(O)CC[C@H]2[C@H](CC[C@@H]3[C@@H]2CC[C@]2(C)[C@@H]([C@H](C)Cn4nnc(C)n4)CC[C@@H]32)C1 has a reported IC50 of < 100 nM

Sure, the documented IC50 for COC[C@@]1(O)CC[C@@]2(C)[C@H](CC[C@@H]3[C@@H]2[C@@H](O)C[C@]2(C)[C@@H]([C@H](C)Cn4cc(C#N)cn4)CC[C@@H]32)C1 is 100 to 1000 nM

// sample CCOC[C@@]1(O)CC[C@@]2(C)[C@H](CC[C@@H]3[C@@H]2CC[C@]2(C)[C@@H]([C@@H](C)N(C)S(=O)(=O)c4ccc(C#N)cn4)CC[C@@H]32)C1 , its IC50 was < 100 nM

Memo: CCC[C@@]1(O)CC[C@@]2(COC)[C@H](CC[C@H]3[C@@H]4CC[C@H]([C@@H](C)Cn5nnc(C)n5)[C@@]4(C)CC[C@@H]32)C1 , reported IC50: < 100 nM
